- ASSAY_PROCEDURE: non-GLP maximum tolerated dose (MTD) toxicity study, IP
- TEST_SETTINGS: rat, in vivo, Sprague-Dawley rats
MEASURED_ENDPOINT: MTD
Answer format reminder: number followed by unit.

# input Please list MTD recorded for the molecule COc1ccc2[nH]cc(CCNC(=O)CC3C(=O)N(CCc4ccc(Cl)cc4Cl)CC(=O)N3CCc3cccs3)c2c1 (stereo not shown)
# output 1000 mg/kg
